Below, each entry is listed with its recorded inhibition.
- Tested on: HIV-1 gp120 / PG9 antibody interaction
- experimental.details: binders of HIV-1 gp120 antibody PG9, primary screen, biochemical, TR-FRET (AID 624416)
- test.conditions: TR-FRET gp120-PG9 antibody binding; at 6.7 µM; hits give high values
In all, about 360,000 compounds went through this assay and about 1,500 (0.42%) were called active. Shown is part of a subset that was picked to be rich in actives.
Hi! Could you send only the number? It should be in %, unit omitted.

| molecule | inhibition [%] |
| --- | --- |
| N#Cc1ccccc1Sc1ccccc1C(=O)OCC(=O)NC1CCCCC1 | 33 |
| COCCCNc1nc2c(-c3cccc(C)c3)nnn2c2ccc(Cl)cc12 | 10.3 |
| COC(=O)Cc1nnn2c1[C@H](C)[C@@H](OC)c1cc(Br)ccc1-2 | 0.07 |
| O=C(COC(=O)c1cccc(Cl)c1Cl)NC1CCCCCC1 | -0.6 |

// map C[C@@H]1ON(C)[C@H]2C[C@H]3c4cc(N5CCOCC5)ccc4CCN3C[C@@H]12 to recorded inhibition (system: HIV-1 gp120 / PG9 antibody interaction)
-1.04

// map CN1C(=O)C(Br)(Br)CC1c1cccnc1 (configuration not stated) to recorded inhibition (system: HIV-1 gp120 / PG9 antibody interaction)
-0.49

// map CC(=O)Nc1ccc(C(=O)CSc2nc3ccc(C)cc3[nH]2)cc1 to recorded inhibition (system: HIV-1 gp120 / PG9 antibody interaction)
-0.81
